Hey, just so you know, these numbers are from ChEMBL document CHEMBL4513216.

System: Plasmodium berghei
Assay: Screen against P. berghei liver stage (PbLuc), transformed with Luciferase, at 10uM
Type: functional, HepG2
Details: tested at 10 uM
About 8,600 (12%) of roughly 69,000 compounds showed an effect of 50% or more. This is one part of a sample in which strong results are shown more often than they occur.
quantity-measured: INHIBITION (%)
Answer with a number only, understood to be in %.

Inquiry: Returns the measured INHIBITION for the input molecule. Input: Cc1ncsc1-c1nnc(C2CCN(Cc3ccccc3Cl)CC2)o1
Reply text: 29.3

Inquiry: Any idea what INHIBITION was measured for Fc1cccc(CN2CCC(c3noc(-c4cnccn4)n3)CC2)c1F ?
Reply text: -11.4

Inquiry: // query INHIBITION value for entry CN(C)C(=O)[C@@H]1C[C@@H]2CCN(C3CCOCC3)C[C@@H]2O1
Reply text: 14.5

Inquiry: Name the recorded INHIBITION for O=C(CCCNC(=O)NCC1CCCO1)Nc1ccc(Cl)cc1 (stereo not drawn) .
Reply text: 25.8

Inquiry: What value of INHIBITION has been recorded for this entry: O=C(NC[C@H]1C[C@@H]2CCN1C[C@@H]2CN1CCCCC1)Nc1ccsc1
Reply text: 33.2

Inquiry: Can you look up the measured INHIBITION of Cc1ccc(CN2CCc3ncc(CNC(=O)C4CCC4)n3CC2)o1 for me?
Reply text: 45.1

Inquiry: Name the reported INHIBITION value associated with the molecule COc1ccccc1C(=O)C1CCCN(c2cc(C#N)ccn2)C1 (stereo not drawn)
Reply text: 18.5

Inquiry: # query: INHIBITION of entry Cc1ncsc1-c1nnc(C2CCN(Cc3cccc(F)c3F)CC2)o1
Reply text: 54.5

Inquiry: Please look up its INHIBITION: Cc1ncsc1-c1nnc(C2CCN(CC3CCCCC3)CC2)o1
Reply text: -18.4

Inquiry: Given the entry Cc1n[nH]c(C2CN(C(=O)Cn3ccccc3=O)CCO2)n1 (stereo not drawn) , report its measured INHIBITION.
Reply text: 34.5

Inquiry: For the molecule CCCN1CCN(Cc2cc(Cl)cc(Cl)c2)[C@H]2CS(=O)(=O)C[C@H]21 , what INHIBITION is on record?
Reply text: 50.5

Inquiry: INHIBITION lookup needed for CC(=O)N1CC(=O)N(c2ccccc2)CC12CCN(Cc1cccs1)C2 (stereo not drawn) , thanks.
Reply text: 6.38

Inquiry: Given the entry CCN1CCN(S(=O)(=O)N2CCc3ccccc3C2)[C@H]2CS(=O)(=O)C[C@H]21 , report its measured INHIBITION.
Reply text: -40.4

Inquiry: # input molecule: O=C(c1n[nH]cc1Cl)N1CCOC(Cc2cccc(C(F)(F)F)c2)C1 (stereo not drawn) ; wanted: its INHIBITION
Reply text: 75.9

Inquiry: Give its INHIBITION value. Item: O=C(CNc1ccc(OC2CCOC2)cc1)NCc1ccco1 (stereo not drawn)
Reply text: -12.1

Inquiry: Would you mind telling me what INHIBITION value was observed for CC(=O)N1CCOC(Cc2cccc(C(F)(F)F)c2)C1 (stereo not drawn) ?
Reply text: 7.1

Inquiry: Item CCOc1cc(=O)n2c(c1C(=O)OCc1cccc(C)c1)CCCC2 has what recorded INHIBITION?
Reply text: 43.8

Inquiry: Dear colleague, I am looking for the recorded INHIBITION of the following molecule: CCCC(=O)N1CCCC(c2cc3cccnc3c(O)n2)C1 (stereo not drawn)
Reply text: 25.8

Inquiry: Param item = Cc1nn(CCN2CCSCC2)cc1CNCC1CC1 ; retrieve measured INHIBITION.
Reply text: -22

Inquiry: I'd like to know its INHIBITION. The molecule in question is O=C(O)C1CCCN(C(=O)CCn2ccc3c(Br)cccc32)C1 (stereo not drawn)
Reply text: 34.2

Inquiry: State the recorded INHIBITION for this entry: Cn1cnc(CNC(=O)c2ccccc2-n2cc(CN)cn2)c1
Reply text: -5.71

Inquiry: Form field: reported INHIBITION of O=S1(=O)C[C@@H]2[C@H](C1)N(Cc1cc(F)cc(Cl)c1)CCN2CCO
Reply text: 58.5

Inquiry: Report INHIBITION for COc1ccc(C(=O)C2CCCN(c3cc(C#N)ccn3)C2)cc1OC (stereo not drawn) please.
Reply text: 42.1

Inquiry: What measured INHIBITION goes with O=C(NCCn1nc(C2CCNC2)c2cccnc21)c1ccccc1 (stereo not drawn) ?
Reply text: -11.7

Inquiry: For the molecule shown here, Cn1ccc(C(=O)N2CCCC(Cc3cccc4cccnc34)C2)n1 (stereo not drawn) , give the reported INHIBITION.
Reply text: -0.371

Inquiry: Param item = CC(C)=CCN1CCN(C(=O)C2CCS(=O)(=O)C2)CC1 (stereo not drawn) ; retrieve measured INHIBITION.
Reply text: 8.4

Inquiry: Need INHIBITION, item CC1Cc2ccccc2N1C(=O)Cn1nc(-c2cccs2)ccc1=O (stereo not drawn)
Reply text: 44.3

Inquiry: Find the recorded INHIBITION belonging to CC(=O)c1cnc(N(C)Cc2cc(C)cc(C)n2)nc1C and report it.
Reply text: 28.5

Inquiry: # lookup: INHIBITION of Cc1cccn2cc(CNS(=O)(=O)N3CCOCC3)nc12
Reply text: 19.8

Inquiry: Name the recorded INHIBITION for CCCN1CCN(Cc2cccc(OC)c2)[C@H]2CS(=O)(=O)C[C@H]21 .
Reply text: 53.2

Inquiry: # input molecule: CCc1n[nH]c(C2CN(C(=O)Cn3ccccc3=O)CCO2)n1 (stereo not drawn) ; wanted: its INHIBITION
Reply text: 53

Inquiry: # lookup: INHIBITION of CCCc1n[nH]c(C2CN(C(=O)Cn3ccccc3=O)CCO2)n1 (stereo not drawn)
Reply text: 48.4

Inquiry: Name the reported INHIBITION value associated with the molecule COc1cccc(C(=O)C2CCCN(c3cc(C#N)ccn3)C2)c1 (stereo not drawn)
Reply text: 59.4

Inquiry: # get_value(readout='INHIBITION', item= CC(Cn1ccnc1)NC(=O)N1CCN(Cc2cccs2)CC1 (stereo not drawn) )
Reply text: 49.1

Inquiry: GET /values?readout=INHIBITION&item= COCC(=O)N1CCC(Cc2nccnc2-c2c(C)n[nH]c2C)C1 (stereo not drawn)
Reply text: 17.4

Inquiry: Given the molecule C[C@H]1CN(C)C[C@@]12COCCN(C(=O)Cc1ccccc1)C2 , what is its reported INHIBITION?
Reply text: -21.7

Inquiry: Request the reported INHIBITION associated with Cc1ccc(CN2CCN(Cc3ccncc3)[C@@H]3CS(=O)(=O)C[C@@H]32)cc1
Reply text: 36.7

Inquiry: Request the reported INHIBITION associated with O=S1(=O)C[C@@H]2[C@H](C1)N(Cc1cc(F)cc(F)c1)CCN2CCO
Reply text: 33.7

---

System: Plasmodium berghei
Assay: Screen against P. berghei liver stage (PbLuc), transformed with Luciferase, at 10uM
Format: functional, HepG2
Conditions: tested at 10 uM
Screen size: about 69,000 compounds; about 8,600 (12%) showed an effect of 50% or more. The sample as a whole holds a higher share of strong results than the screen did.
So I've got a bunch of compounds here, and I need their INHIBITION values.
Give the number; % is assumed, so skip it.

Inquiry: Which measured INHIBITION belongs to Cc1noc(C)c1CN(C)C(=O)NC(C)Cc1ccco1 (configuration not stated) , tested on Plasmodium berghei?
Reply text: 53.3

Inquiry: Param readout= INHIBITION; system= Plasmodium berghei; entry= Cc1cn2c(n1)C(CNCc1cnn3ccccc13)CCC2 (configuration not stated) ; returns value.
Reply text: 50.1

Inquiry: Form field - read-out: INHIBITION; system: Plasmodium berghei; submitted item: CCOCCC1(CNC(=O)c2ccc(C)nc2)CCCC1
Reply text: -30.6

Inquiry: Report INHIBITION for CC(C)(C)C(=O)N1CCC(c2noc(C3CCC(=O)N3)n2)CC1 (configuration not stated) tested on Plasmodium berghei.
Reply text: -17.9

Inquiry: Identify the measured INHIBITION of CC(=O)N(Cc1ncc(C(C)C)o1)C1CCN(CC2CCC2)C1 (configuration not stated) for Plasmodium berghei.
Reply text: 32.65

Inquiry: // map CC(C)(C)c1cn2c(n1)C(CNCc1cnn3ccccc13)CCC2 (configuration not stated) to recorded INHIBITION (system: Plasmodium berghei)
Reply text: 51.1

Inquiry: Give Plasmodium berghei INHIBITION for CN(CC1CCCCO1)c1ncnc2cc(F)ccc12 (configuration not stated)
Reply text: 4.68

Inquiry: Lab request: please report INHIBITION under test system Plasmodium berghei for CC(C)(C)c1ncc(CNCC2CCCn3ccnc32)s1 (configuration not stated)
Reply text: -7.66

Inquiry: Quick check: INHIBITION on Plasmodium berghei, item Cc1noc(C)c1CN(C)C(=O)NC(C)c1cccs1 (configuration not stated) ?
Reply text: -55.1

Inquiry: Reported INHIBITION for Plasmodium berghei, given COc1ccc2cc(CN(C)CCc3cn[nH]c3)c(=O)[nH]c2c1 ?
Reply text: 36.5

Inquiry: Short answer please: INHIBITION, Plasmodium berghei, entry O=C(NCc1cnn2ccccc12)NC1CCCC1
Reply text: -16.4

Inquiry: Give recorded INHIBITION with Plasmodium berghei for the following compound: CNC(=O)C1(C)CN(c2nc(C)cc(C)n2)CCO1 (configuration not stated)
Reply text: -3.94

Inquiry: Param readout= INHIBITION; system= Plasmodium berghei; entry= CC(C)(C)c1cn2c(n1)C(CNCc1ccccn1)CCC2 (configuration not stated) ; returns value.
Reply text: 56.5

Inquiry: Could you share what INHIBITION was measured for CC(Cn1ccnc1)NC(=O)N(C)Cc1ccc2c(c1)OCO2 (configuration not stated) , tested on Plasmodium berghei?
Reply text: 7.12

Inquiry: Plasmodium berghei / INHIBITION / CC(Cn1ccnc1)NC(=O)N(C)Cc1ccc2c(c1)OCCO2 (configuration not stated) : value?
Reply text: 36.1

Inquiry: # returns recorded INHIBITION (system: Plasmodium berghei) for CC(C)C(c1cccnc1)N(C)C(=O)Cc1ccc(O)cc1 (configuration not stated)
Reply text: -30

Inquiry: Param readout= INHIBITION; system= Plasmodium berghei; entry= CC(C)C(c1cccnc1)N(C)C(=O)Cc1c(F)cccc1F (configuration not stated) ; returns value.
Reply text: 41.8
